Here the recorded pEC50 is given for each entry.
- tested on: hGPR120 (Homo sapiens)
- Sequence (Q5NUL3 whole entry): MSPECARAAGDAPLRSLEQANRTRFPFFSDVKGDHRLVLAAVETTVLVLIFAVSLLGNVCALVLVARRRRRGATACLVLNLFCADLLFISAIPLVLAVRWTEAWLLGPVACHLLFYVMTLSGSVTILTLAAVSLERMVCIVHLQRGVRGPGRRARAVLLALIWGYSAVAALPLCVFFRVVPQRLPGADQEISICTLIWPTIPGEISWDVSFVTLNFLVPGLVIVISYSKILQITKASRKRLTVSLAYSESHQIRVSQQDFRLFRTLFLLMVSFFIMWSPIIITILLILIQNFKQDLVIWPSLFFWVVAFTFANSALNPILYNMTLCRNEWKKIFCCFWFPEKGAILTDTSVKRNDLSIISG
- measurement description: Measurement of Activity of GPR120 Agonist (Cell-Based Assay), Calcium 5 dye fluorescence
- condition context: CHO-K1 cells expressing Ga16 and hGPR120
pEC50: −log10 of the molar value.

- compound: "O=C(O)C1CC1COc1c(F)cc(-c2cc(F)cc(OC3CCC3)c2)cc1F (stereo not drawn)"
  pEC50: "> 6.70"
- compound: "O=C(O)CC1CCN(c2c(F)cc(-c3ncc(F)c(OCC4CC4)n3)cc2F)CC1"
  pEC50: "> 6.70"
- compound: "O=C(O)CC1CCN(c2c(F)cc(-c3nc(OC4CCC4)cc(C(F)(F)F)n3)cc2F)CC1"
  pEC50: "< 4.70"
- compound: "O=C(O)CCCOc1ccc(-c2cccc3c2OC2(CCCC2)O3)cc1F"
  pEC50: "5.70 to 6.70"
- compound: "CCCOc1ncccc1-c1cc(F)c(OCc2cc(O)no2)c(F)c1"
  pEC50: "> 6.70"
- compound: "O=C(O)CCC1CCN(c2c(F)cc(-c3cccc(C4CCC4)n3)cc2F)CC1"
  pEC50: "5.70 to 6.70"
- compound: "O=C(O)CCCCc1c(F)cc(-c2cccnc2OCC2CCC2)cc1F"
  pEC50: "> 6.70"
- compound: "O=C(O)CC1CCN(c2c(F)cc(-c3cccc(CC4CCC4)n3)cc2F)CC1"
  pEC50: "5.70 to 6.70"
- compound: "O=C(O)CCCOc1c(F)cc(-c2cccnc2SC2CCCCC2)cc1F"
  pEC50: "4.70 to 5.70"
